In this section, each of the molecules is paired with its reported IC50.
Target: human P2X3 receptor (Homo sapiens (Human))
Sequence (P56373 whole entry): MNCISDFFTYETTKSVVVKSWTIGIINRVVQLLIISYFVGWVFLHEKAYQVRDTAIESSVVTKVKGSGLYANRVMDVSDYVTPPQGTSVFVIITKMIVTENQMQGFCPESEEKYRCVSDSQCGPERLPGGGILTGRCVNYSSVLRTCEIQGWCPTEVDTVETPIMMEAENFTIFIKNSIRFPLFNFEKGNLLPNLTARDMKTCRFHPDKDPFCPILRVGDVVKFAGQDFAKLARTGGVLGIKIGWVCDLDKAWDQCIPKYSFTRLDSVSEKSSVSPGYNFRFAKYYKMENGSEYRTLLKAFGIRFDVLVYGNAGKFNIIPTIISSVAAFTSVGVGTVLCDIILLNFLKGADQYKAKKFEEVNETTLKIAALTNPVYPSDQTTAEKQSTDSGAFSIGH
Assay: Evaluation of human P2X3 receptor inhibitory activity (Fluo-3 calcium fluorescence, FDSS 3000, ATP stimulation);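 note: stimulus was 50 nM ATP with fluorescence followed for 3 min, and the response per well was peak post-ATP fluorescence divided by the reading at measurement start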
Assay type: cell-based
Conditions: C6BU-1 cells stably expressing human P2X3 receptor
Respond with the bare value in nM.

Example results:
CCn1c(=O)[nH]/c(=N\c2ccc(Oc3nc(OC)nc(OC)n3)cc2)n(Cc2ccc(Cl)cc2)c1=O	37
CCn1c(=O)[nH]/c(=N\c2ccc(Oc3cncc(C(N)=O)c3)cc2)n(Cc2ccc(F)cc2)c1=O	33

Ask | Query the reported IC50 for human P2X3 receptor (Homo sapiens (Human)); item: COc1cc(/N=c2\[nH]c(=O)n(C[C@H](C)C(=O)O)c(=O)n2Cc2ccc(C)cc2)ccc1Br
Reply | 473

Ask | Query for human P2X3 receptor (Homo sapiens (Human)): what IC50 does the record show for CCn1c(=O)[nH]/c(=N\c2ccc(OCC3(C(=O)O)CC3)cc2)n(Cc2ccc(Cl)cc2)c1=O ?
Reply | 230

Ask | // lookup IC50 | system=human P2X3 receptor (Homo sapiens (Human)) | key= CCn1c(=O)[nH]/c(=N\c2ccc(Oc3ccsc3C(=O)OC)cc2)n(Cc2ccc(Cl)cc2)c1=O
Reply | 340

Ask | Requested read-out IC50, target or system human P2X3 receptor (Homo sapiens (Human)), entry COc1cc(/N=c2\[nH]c(=O)n(CCCOC3CCCCO3)c(=O)n2Cc2ccc(Cl)cc2)ccc1OC(C)C (stereo not drawn)
Reply | 3
